Assay: physchem
Settings: water, Solubility (mM, as acetophenone equivalents)
Readout Kind: Solubility

Solubility measured on O=C([O-])CC(=O)c1ccccc1.[Na+] [sodium benzoylacetate] = ≥ 200 mM

====

Test: physchem
Conditions: pH 7, water, Solubility
Readout Kind: Solubility

Solubility measured on O=C([O-])CC(=O)c1ccccc1.[Na+] [sodium benzoylacetate] = > 200 mM

====

Assay: Storage stability of benzoylacetate salts and their corresponding acid (HPLC or gravimetric)
Assay type: physicochemical
Conditions: solid dry acid, typical indoor conditions
Readout Kind: half-life

half-life measured on O=C(O)CC(=O)c1ccccc1 = ~100 days

====

Assay: Sustained release of acetophenone in vitro in model blood electrolyte solution at 37° C.
Type: physicochemical
Conditions: model blood electrolyte solution pH 7.4, 37° C.; read-out: estimated half-life (converted)
Readout Kind: half-life at 2 mM

half-life at 2 mM measured on O=C([O-])CC(=O)c1ccccc1.[Na+] [sodium benzoylacetate] = ~20 h
